# Experimental System: DRB1*1501 (DR2w2β1) (Homo sapiens, UniProt P01903+P01911)
# Method: HLA class II peptide binding assay, purified HLA
# Assay Conditions: Table XIX, DR supermotif peptides; unit not given
Value Kind: DR2wB1 binding data

1) CC(C)C[C@H](NC(=O)[C@H](CO)NC(=O)[C@H](C)NC(=O)[C@H](CC(N)=O)NC(=O)[C@@H](NC(=O)[C@@H]1CCCN1C(=O)[C@H](CC(C)C)NC(=O)[C@H](Cc1ccc(O)cc1)NC(=O)[C@@H](NC(=O)[C@H](CC(C)C)NC(=O)[C@H](CCC(=O)O)NC(=O)[C@H](CC(C)C)NC(=O)[C@@H](N)CC(N)=O)[C@@H](C)O)[C@@H](C)O)C(=O)N[C@@H](CO)C(=O)N[C@@H](Cc1ccccc1)C(=O)O	0.0280

Query string: // query DR2wB1 binding data value for entry `CC[C@H](C)[C@H](NC(=O)[C@H](CO)NC(=O)[C@H](CCC(=O)O)NC(=O)[C@H](CC(C)C)NC(=O)[C@H](C)NC(=O)[C@H](CCSC)NC(=O)[C@H](Cc1c[nH]c2ccccc12)NC(=O)[C@H](CCCCN)NC(=O)[C@@H](NC(=O)[C@@H]1CCCN1C(=O)[C@@H](NC(=O)[C@@H](N)CCCCN)C(C)C)[C@@H](C)CC)C(=O)N[C@@H](CC(C)C)C(=O)N[C@@H](CCCNC(=N)N)C(=O)N[C@@H](CCCNC(=N)N)C(=O)O`
Result string: 2.7000
